B1: Pistol ribozyme (parent)
chain: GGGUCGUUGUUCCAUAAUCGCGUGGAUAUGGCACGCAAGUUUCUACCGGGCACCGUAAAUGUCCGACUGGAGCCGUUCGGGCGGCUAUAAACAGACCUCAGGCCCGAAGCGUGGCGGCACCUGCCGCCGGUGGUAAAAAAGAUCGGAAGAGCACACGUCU

# Variants of: B1
# ASSAY: aptazyme ON/OFF ratio, guanine; higher = stronger switching; co-transcriptional cleavage with and without guanine
MEASURE: aptazyme ON/OFF ratio

U7G U8C G9C U10A C13U | 1.07
U7A U8G G9U U11G C12U C13G | 1.29
G9A U11G C13U | 1.44
U7G U8C G9C U10G U11A C13G | 1.19
U7A U8C G9C U10A U11C C12U C13G | 1.26
U7G U8C G9A U10G C12A C13G | 1.03
U8A U10G U11A C12U C13A | 1.42
U7G U8G G9C U11C C12U C13A | 1.43
U7A U8C U11C C12A C13U | 1.37
U7G U8A U10C U11C C13A | 1.05
U8A G9A U10C C12G C13A | 1.19
U7G G9A U11G C12G C13A | 1.07
U7C U8C G9U U10A C12U C13A | 1.07
U7C U8G G9C U10G U11C C13G | 1.05
U7G U8C U10C U11C C12U C13A | 1.08
U7C U8A U10C U11A C13U | 1.16
U7G G9A U10C U11C C12G C13G | 1.05
U7A U8G G9C U10C U11C C13G | 1.02
U8C G9A U10G U11A C12U C13A | 1.1
U7A U8G G9U U10A U11A C12U | 1.32
G9A U10A C12A C13G | 1.06
U7G U8C G9U U10G C12A C13G | 1.11
